Biological target: G9a (Homo sapiens)
Sequence (Q96KQ7 1-1210): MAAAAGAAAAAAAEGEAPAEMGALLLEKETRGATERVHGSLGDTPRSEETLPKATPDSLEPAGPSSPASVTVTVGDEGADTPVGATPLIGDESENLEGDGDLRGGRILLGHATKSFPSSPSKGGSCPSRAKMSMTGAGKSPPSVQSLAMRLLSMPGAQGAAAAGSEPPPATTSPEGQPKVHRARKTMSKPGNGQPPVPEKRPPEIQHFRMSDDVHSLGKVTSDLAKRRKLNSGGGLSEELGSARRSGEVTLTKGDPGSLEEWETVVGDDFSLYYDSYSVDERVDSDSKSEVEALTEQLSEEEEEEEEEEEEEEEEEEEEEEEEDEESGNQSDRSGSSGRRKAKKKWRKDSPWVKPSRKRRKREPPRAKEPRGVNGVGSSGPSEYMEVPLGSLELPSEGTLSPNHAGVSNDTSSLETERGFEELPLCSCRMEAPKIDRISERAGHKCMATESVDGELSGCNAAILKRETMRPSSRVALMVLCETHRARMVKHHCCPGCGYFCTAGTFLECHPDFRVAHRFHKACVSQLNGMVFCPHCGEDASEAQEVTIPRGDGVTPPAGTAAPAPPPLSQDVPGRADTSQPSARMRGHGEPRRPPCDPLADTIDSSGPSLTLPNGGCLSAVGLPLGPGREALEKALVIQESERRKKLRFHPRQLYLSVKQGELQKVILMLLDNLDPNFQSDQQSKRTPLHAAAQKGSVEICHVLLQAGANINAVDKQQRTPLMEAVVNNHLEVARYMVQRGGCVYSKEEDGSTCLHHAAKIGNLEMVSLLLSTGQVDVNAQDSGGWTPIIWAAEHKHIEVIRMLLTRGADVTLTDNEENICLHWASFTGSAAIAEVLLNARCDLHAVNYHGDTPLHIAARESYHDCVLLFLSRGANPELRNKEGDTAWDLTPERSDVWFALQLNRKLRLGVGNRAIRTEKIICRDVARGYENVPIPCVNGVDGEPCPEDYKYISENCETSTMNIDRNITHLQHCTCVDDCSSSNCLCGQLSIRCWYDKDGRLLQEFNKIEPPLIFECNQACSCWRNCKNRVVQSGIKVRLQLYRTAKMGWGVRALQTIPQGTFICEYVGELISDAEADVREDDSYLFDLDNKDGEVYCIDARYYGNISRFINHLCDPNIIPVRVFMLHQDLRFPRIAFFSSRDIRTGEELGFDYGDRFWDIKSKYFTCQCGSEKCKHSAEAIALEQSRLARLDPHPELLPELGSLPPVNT
Test: G9a AlphaLISA enzymatic activity assay
Assay type: biochemical
Conditions: 0.15 nM G9a, 10 uM S-adenosyl-methionine, 100 nM biotinylated histone 3 peptide (1-21), 1 h room temperature
From the text: The G9a AlphaLISA assay was used to detect the methyl modifications of a biotinylated histone H3 peptide by the compounds. These modifications are done by the histone methyl transferase activity of the G9a enzyme. The assay consists of reading a chemiluminescent signal at 615 nm; this signal is generated by a laser excitation at 680 nm that transfers a reactive singlet oxygen between the donor beads and acceptor beads. Donor beads are streptavidin conjugated and bind to the biotin on the peptide. […]
Counter-ions that a name gives are not always drawn.
Task for the reader: assign each of the following compounds its reported pIC50.
Answers are plain numbers, as −log10 of the molar value.

compound: COc1cc2c(cc1OCCCN1CC3CC(C3)C1)[nH]c1ccncc12 [Compound 98, hydrochloride]
pIC50: 5.55

For each of the compounds below, note its pIC50.
1. COc1cc2c(cc1OCCCN1CCCC1)[nH]c1ccnc(C3=CCOCC3)c12 [Compound 64, hydrochloride]
2. COc1cc2c(cc1OCCCN1CCCC1)[nH]c1ccnc(N3CC4CCC(C3)O4)c12 [Compound 19]
3. COc1cc2c(cc1OCCCN(C)C)[nH]c1ccnc(C3CC3)c12 [Compound 47, hydrochloride]
4. CCN(CC)c1nccc2[nH]c3cc(OCCCN4CCCC4)c(OC)cc3c12 [Compound 85, bis formate]
5. COc1cc2c(cc1OCCCN(C)C)[nH]c1ccnc(N3CCCC3)c12 [Compound 92, hydrochloride]
6. COc1cc2c(cc1OCCOCCN(C)C)[nH]c1ccnc(C3CC3)c12 [Compound 53, hydrochloride]
7. COc1cc2c(cc1OCCN(C)C)[nH]c1ccncc12 [Compound 70, hydrochloride]

**Result**
1: 7.92; 2: 6.52; 3: 8.03; 4: 7.77; 5: 7.29; 6: 7.21; 7: 6.40

For each of the compounds below, note its pIC50.
1. COc1cc2c(cc1OCCCN(C)C)[nH]c1ccnc(C3CCOCC3)c12 [Compound 68, hydrochloride]
2. CCN(C)CCCOc1cc2[nH]c3ccnc(C4CC4)c3c2cc1OC [Compound 46, hydrochloride]
3. COCCCc1nccc2[nH]c3cc(OCCCN(C)C)c(OC)cc3c12 [Compound 58, hydrochloride]

**Result**
[7.59, 7.62, 7.07]

For each of the compounds below, note its pIC50.
1. COc1cc2c(cc1OCCCN1CCCC1)[nH]c1ccnc(OC3CCOCC3)c12 [Compound 73, trifluoroacetate]
2. COc1cc2c(cc1OCCCN1CCCC1)[nH]c1ccnc(CO)c12 [Compound 82]
3. COc1cc2c(cc1OCCCN(C)C)[nH]c1ccnc(C3CCC3)c12 [Compound 69, hydrochloride]

**Result**
[6.02, 8.35, 7.52]

For each of the compounds below, note its pIC50.
1. COc1cc2c(cc1OCCCN1CCCC1)[nH]c1ccnc(OC)c12 [Compound 100, hydrochloride]
2. COc1cc2c(cc1OCCCN1CCCC1)[nH]c1cc(C3CC3)ncc12 [Compound 101, hydrochloride]

**Result**
1. 6.42
2. 6.92
